- Test system: STEME (common chickweed)
- procedure.text: Pre-emergence herbicidal activity, cool season
- Assay type: in vivo, Stellaria media
- assay.setup: lowest tested rate with 80% or greater inhibition; rates 300, 100, 30, 10 g/ha; about 14 days
readout: Pre-emergence activity GR80, STEME (g/ha)
Response body: numeric value in g/ha, unit text excluded.

mol.smiles	recorded.result
CCN(CC)C(=O)n1cnc(S(=O)(=O)C(F)(F)C(=O)c2ccccc2)n1	300

Proceeding to the next compound to report its Pre-emergence activity GR80, STEME.
Tell me reported Pre-emergence activity GR80, STEME for `CN(Cc1ccccc1)C(=O)n1cnc(S(=O)(=O)C(F)F)n1` , tested with STEME (common chickweed). 100

###

- System: BROTE (downy brome)
- procedure.text: Pre-emergence herbicidal activity, cool season
- Type: in vivo, Bromus tectorum
- assay.setup: GR80 = lowest tested rate (300, 100, 30, 10 g/ha) with 80% or greater inhibition; approx. 14 days after treating; 18/13° C.
Reported Pre-emergence activity (GR80) BROTE values for the following compounds.
Response body: numeric value in g/ha, unit text excluded.

mol.smiles	Pre-emergence activity (GR80) BROTE, g/ha
C=CCC(F)(F)S(=O)(=O)c1ncn(C(=O)N(CC)CC)n1	100

What does the data say about its Pre-emergence activity (GR80) BROTE? Entry: `CCN(CC)C(=O)n1cnc(S(=O)(=O)C(F)(F)F)n1` 300

What does the data say about its Pre-emergence activity (GR80) BROTE? Entry: `CON(C)C(=O)n1cnc(S(=O)(=O)C(F)F)n1` 300

What does the data say about its Pre-emergence activity (GR80) BROTE? Entry: `CN(C)C(=O)n1cnc(S(=O)(=O)C(F)(F)Cl)n1` 100

###

- Tested on: SORVU (shattercane)
- procedure.text: Pre-plant incorporated (PPI) herbicidal activity, warm season
- Assay type: in vivo, Sorghum vulgare
- assay.setup: Sorghum bicolor; PPI application, 10 g/ha; read-out: Percent inhibition SORVU
readout: inhibition at 10 g/ha (%)
Response body: numeric value in %, unit text excluded.

Sample answers from the record:
mol.smiles	inhibition at 10 g/ha (%)
C=CCC(F)(F)S(=O)(=O)c1ncn(C(=O)N(CC)CC)n1	20
C=C(C)CC(F)(F)S(=O)(=O)c1ncn(C(=O)N(CC)CC)n1	20
CCN(CC)C(=O)n1cnc(S(=O)(=O)C(F)F)n1	10

What does the data say about its inhibition at 10 g/ha? Entry: `C=C(Br)CC(F)(F)S(=O)(=O)c1ncn(C(=O)N(CC)CC)n1` 30

What does the data say about its inhibition at 10 g/ha? Entry: `CCN(CC)C(=O)n1cnc(S(=O)(=O)C(F)(F)Br)n1` 20

###

- System: STEME (common chickweed)
- procedure.text: Pre-emergence herbicidal activity, cool season
- Format: in vivo, Stellaria media
- assay.setup: lowest tested rate with 80% or greater inhibition; rates 300, 100, 30, 10 g/ha; about 14 days
readout: Pre-emergence activity GR80, STEME (g/ha)
Response body: numeric value in g/ha, unit text excluded.

compound	recorded.result
CN(C(=O)n1cnc(S(=O)(=O)C(F)(F)Cl)n1)C1CCCCC1 [Example 91]	30

What does the data say about its Pre-emergence activity GR80, STEME? Entry: C=CCN(C)C(=O)n1cnc(S(=O)(=O)C(F)F)n1 [Example 30] 10

What does the data say about its Pre-emergence activity GR80, STEME? Entry: COCCN(C)C(=O)n1cnc(S(=O)(=O)C(F)(F)C(F)(F)Br)n1 [Example 76] 300

What does the data say about its Pre-emergence activity GR80, STEME? Entry: C=CCN(C)C(=O)n1cnc(S(=O)(=O)C(F)(F)Cl)n1 [Example 89] 100

What does the data say about its Pre-emergence activity GR80, STEME? Entry: CCN(CC)C(=O)n1cnc(S(=O)(=O)C(F)(F)C(F)(F)Br)n1 [Example 4] 10

What does the data say about its Pre-emergence activity GR80, STEME? Entry: O=C(N1CCCC1)n1cnc(S(=O)(=O)C(F)(F)Br)n1 [Example 23] 100

What does the data say about its Pre-emergence activity GR80, STEME? Entry: C=C(Br)CC(F)(F)S(=O)(=O)c1ncn(C(=O)N(CC)CC)n1 [Example 19] 10

###

Reported Percent inhibition AMARE values for the following molecules.
- Tested on: AMARE (redroot pigweed)
- procedure.text: Pre-plant incorporated (PPI) herbicidal activity, warm season
- Assay type: in vivo, Amaranthus retroflexus
- assay.setup: PPI application, 30 g/ha
- Experimental: In another set of tests, the pre-plant incorporated (PPI) activity of compounds of this invention was evaluated on the same species as for the pre-emergence tests described above. […] A pre-prepared topsoil mixture (described above) was placed in a pot and compacted to a depth of 1.0 to 1.25 cm from the top of the pot. […] A sufficient quantity of soil to cover the seeds and level fill the pot was weighed into an open container. […]
Response body: numeric value in %, unit text excluded.

Sample answers from the record:
mol.smiles	recorded.result
CCN(CC)C(=O)n1cnc(S(=O)(=O)C(F)(F)F)n1	100
CCN(CC)C(=O)n1cnc(S(=O)(=O)C(F)(F)Cl)n1	90
CCN(CC)C(=O)n1cnc(S(=O)(=O)C(F)(F)C(F)(F)Br)n1	70

What does the data say about its Percent inhibition AMARE? Entry: `CCN(CC)C(=O)n1cnc(S(=O)(=O)C(F)(F)SCc2ccccc2)n1` 0

###

- Test system: ECHCG (barnyardgrass)
- procedure.text: Pre-plant incorporated (PPI) herbicidal activity, warm season
- Type: in vivo, Echinochloa crus-galli
- assay.setup: pre-plant incorporated; lowest tested rate with 80% or greater inhibition; about 14 days
Reported PPI activity GR80, ECHCG values for the following compounds.
Response body: numeric value in g/ha, unit text excluded.

mol.smiles	readout	recorded.result
C=C(Br)CC(F)(F)S(=O)(=O)c1ncn(C(=O)N(CC)CC)n1	PPI activity GR80, ECHCG	30
C=C(CC(F)(F)S(=O)(=O)c1ncn(C(=O)N(CC)CC)n1)C[Si](C)(C)C	PPI activity GR80, ECHCG	300
CCN(CC)C(=O)n1cnc(S(=O)(=O)C(F)F)n1	PPI activity GR80, ECHCG	100
C=CCC(F)(F)S(=O)(=O)c1ncn(C(=O)N(CC)CC)n1	PPI activity GR80, ECHCG	30

Proceeding to the next compound to report its PPI activity GR80, ECHCG.
What does the data say about its PPI activity GR80, ECHCG? Entry: `C=C(C)CC(F)(F)S(=O)(=O)c1ncn(C(=O)N(CC)CC)n1` 30

###

- Test system: ABUTH (velvetleaf)
- procedure.text: Pre-plant incorporated (PPI) herbicidal activity, warm season
- Format: in vivo, Abutilon theophrasti
- assay.setup: Abutilon theophrasti; PPI application, 300 g/ha; read-out: Percent inhibition ABUTH
readout: inhibition at 300 g/ha (%)
Response body: numeric value in %, unit text excluded.

What does the data say about its inhibition at 300 g/ha? Entry: `C=C(C)CC(F)(F)S(=O)(=O)c1ncn(C(=O)N(CC)CC)n1` 70

What does the data say about its inhibition at 300 g/ha? Entry: `C=C(Br)CC(F)(F)S(=O)(=O)c1ncn(C(=O)N(CC)CC)n1` 0

What does the data say about its inhibition at 300 g/ha? Entry: `C=CCC(F)(F)S(=O)(=O)c1ncn(C(=O)N(CC)CC)n1` 40

What does the data say about its inhibition at 300 g/ha? Entry: `CCSC(F)(F)S(=O)(=O)c1ncn(C(=O)N(CC)CC)n1` 20

What does the data say about its inhibition at 300 g/ha? Entry: `CCN(CC)C(=O)n1cnc(S(=O)(=O)C(F)F)n1` 50

What does the data say about its inhibition at 300 g/ha? Entry: `CCN(CC)C(=O)n1cnc(S(=O)(=O)C(F)(F)Br)n1` 20

###

- Test system: rice (ORYSA)
- procedure.text: Selectivity test, PPI, warm season crop
- Assay type: in vivo, Oryza sativa
- assay.setup: PPI application, 300 g/ha
Label scheme for Percent inhibition ORYSA: lower than 30% is Criterion not met, 30% and above is Criterion met.

Solved cases below.
mol.smiles	category.label
CCN(CC)C(=O)n1cnc(S(=O)(=O)C(F)(F)SCC(=O)OC)n1	Criterion met
CCN(CC)C(=O)n1cnc(S(=O)(=O)C(F)(F)C(F)(F)Br)n1	Criterion not met

Given the entry `CCN(CC)C(=O)n1cnc(S(=O)(=O)C(F)(F)F)n1` , answer whether its Percent inhibition ORYSA meets or surpasses 30%. Criterion not met

Given the entry `C=C(CC(F)(F)S(=O)(=O)c1ncn(C(=O)N(CC)CC)n1)C[Si](C)(C)C` , answer whether its Percent inhibition ORYSA meets or surpasses 30%. Criterion not met

Given the entry `CCN(CC)C(=O)n1cnc(S(=O)(=O)C(F)(F)SCCOC)n1` , answer whether its Percent inhibition ORYSA meets or surpasses 30%. Criterion met

Given the entry `CCN(CC)C(=O)n1cnc(S(=O)(=O)C(F)(F)Cl)n1` , answer whether its Percent inhibition ORYSA meets or surpasses 30%. Criterion not met

Given the entry `CCN(CC)C(=O)n1cnc(S(=O)(=O)C(F)(F)C(F)F)n1` , answer whether its Percent inhibition ORYSA meets or surpasses 30%. Criterion met

Given the entry `CCN(CC)C(=O)n1cnc(S(=O)(=O)C(F)(F)SC)n1` , answer whether its Percent inhibition ORYSA meets or surpasses 30%. Criterion met
